Data origin, for the record: patent US20230303994

Please provide measured Selectivity for the entries that follow.
- TARGET OR TEST SYSTEM: pre-pro-human insulin

trypsin variant SEQ ID NO: 63 (protein) IVGGYTCAANSIPYQVSLNSGSHRCGGSLINSQWVVSAAHCYKSRIQVRLGEHNIDVLEGNEQFINAAKIITHPNFNGNTLDNDIMLIKLSSPATLNSRVATVSLPRSCAAAGTECLISGWGNTKSSGSSIPSLLQCLKAPVLSDSSCKSSYPGQITGNMICVGFLEGGKDACQGDSGGPVVCNGQLQGIVSSGYGCAQKNKPGVYTKVCNYVNWIQQTIAAN
>90%

For the next question, use this protein.
Quickly give me recorded Selectivity for trypsin variant SEQ ID NO: 107 (protein) IVGGYTCAANSIPYQVSLNSGSHRCGGSLINSQWVVSAAHCYKPRIQVRLGEHNIHVLEGNEQFINAAKIITHPNFNPNTLDNDIMLIKLSSPATLNSHVATVSLPTSCAAAGTECLISGWGNTCSSGSSMPSLLQCLKAPVLSDSSCKSSYPGQITGNMICVGFLEGGADACQGDSGGPVVCNGQLQGIVSSGYGCAQKNKPGVYTKVCNYVNWIQQTIAAN
>90%
